Source of measurements: ChEMBL document CHEMBL1140440

biological target: RNA-directed RNA polymerase (Hepacivirus hominis, UniProt O39930)
Sequence (O39930 whole entry): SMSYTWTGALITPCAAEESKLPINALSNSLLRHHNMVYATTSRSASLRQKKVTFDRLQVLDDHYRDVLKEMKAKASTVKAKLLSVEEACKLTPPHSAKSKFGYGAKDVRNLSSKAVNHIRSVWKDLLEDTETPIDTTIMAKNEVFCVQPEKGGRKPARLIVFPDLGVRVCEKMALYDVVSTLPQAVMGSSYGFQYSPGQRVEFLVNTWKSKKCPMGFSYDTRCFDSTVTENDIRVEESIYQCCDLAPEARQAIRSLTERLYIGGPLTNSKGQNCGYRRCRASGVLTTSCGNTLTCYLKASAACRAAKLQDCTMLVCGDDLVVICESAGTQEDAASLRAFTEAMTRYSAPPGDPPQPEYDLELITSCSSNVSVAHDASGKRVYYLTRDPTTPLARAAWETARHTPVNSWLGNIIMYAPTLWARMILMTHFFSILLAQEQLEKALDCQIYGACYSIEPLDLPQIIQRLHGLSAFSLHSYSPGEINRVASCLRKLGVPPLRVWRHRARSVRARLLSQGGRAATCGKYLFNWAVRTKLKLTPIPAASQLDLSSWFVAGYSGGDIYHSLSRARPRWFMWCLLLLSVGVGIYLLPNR
pIC50: −log10 of the molar value.
readout-type: pIC50

>>> numeric_readout("O=C(O)C(=O)/C=C(\\O)c1ccc(Cc2ccc(F)cc2)s1")
4.19

(A) O=C(O)C(=O)/C=C(\O)c1cccn1Cc1ccc(F)cc1
(B) COc1cccc(Cn2cccc2/C(O)=C/C(=O)C(=O)O)c1
Smaller pIC50 value, A vs B ? Lab log: write the label of the selected item as the result.
A

---

biological target: RNA-directed RNA polymerase (Hepacivirus hominis, UniProt O39930)
pIC50: −log10 of the molar value.
readout-type: pIC50

// solved cases for pIC50 follow
>>> numeric_readout("O=C(O)C(=O)/C=C(\\O)c1cccn1Cc1c(F)cccc1F")
5.13
>>> numeric_readout("O=C(O)C(=O)/C=C(\\O)c1cccc(NS(=O)(=O)c2cc(Cl)c(Cl)cc2Cl)c1")
7.31
>>> numeric_readout("Cn1cc(/C(O)=C/C(=O)C(=O)O)cc1Cc1cccc(F)c1")
4.68
>>> numeric_readout("Cc1cccc(/C(O)=C/C(=O)C(=O)O)c1")
4.92
>>> numeric_readout("Cc1coc(C)c1/C(O)=C/C(=O)C(=O)O")
4.32

(a) O=C(O)C(=O)/C=C(\O)c1cccn1Cc1ccccc1Cl
(b) O=C(O)C(=O)/C=C(\O)c1cccc(OCc2cccc(Oc3ccccc3)c2)c1
(c) N#Cc1ccccc1Cn1cccc1/C(O)=C/C(=O)C(=O)O
With regard to pIC50, arrange the entries in ascending order, please. Answer format: the labels, ordered as requested.
b, a, c

(P) O=C(O)C(=O)/C=C(\O)c1cccc(Cc2cc(Br)cc(Br)c2)c1
(Q) Cc1ccc(/C(O)=C/C(=O)C(=O)O)o1
Between P and Q , which one shows the larger pIC50 value? Lab log: write the label of the selected item as the result.
P

---

pIC50: −log10 of the molar value.
// endpoint pIC50 / system RNA-directed RNA polymerase (Hepacivirus hominis)
readout-type: pIC50

// solved cases for pIC50 follow
>>> numeric_readout("Cc1ccccc1Cn1cccc1/C=C/C(O)=C/C(=O)C(=O)O")
4.74
>>> numeric_readout("Cc1ccc(Cn2cccc2/C=C/C(O)=C/C(=O)C(=O)O)cc1")
4.55
>>> numeric_readout("O=C(O)C(=O)/C=C(O)/C=C/c1cccn1Cc1cccc(F)c1")
4.74
>>> numeric_readout("O=C(O)C(=O)/C=C(\\O)c1ccsc1Cc1cccc(F)c1")
4.10
>>> numeric_readout("O=C(O)C(=O)/C=C(\\O)c1ccccc1Cc1ccc(F)cc1")
5.08

(1) O=C(O)C(=O)/C=C(\O)c1cccc(OCc2cc(-c3ccccc3)on2)c1
(2) N#CCCCOc1ccccc1/C(O)=C/C(=O)C(=O)O
(3) O=C(O)C(=O)/C=C(\O)c1ccc(Cc2ccccc2)s1
Put the items in sequence by pIC50, from largest down. Answer format: the labels, ordered as requested.
2, 1, 3

(I) O=C(O)C(=O)/C=C(\O)c1ccccc1
(II) CCCCS(=O)(=O)N1CCCC(Cc2ccc(Cl)cc2)(/C(O)=C/C(=O)C(=O)O)C1 (stereo unspecified)
Between I and II , which one shows the larger pIC50 value? Lab log: write the label of the selected item as the result.
I
(I: 5.25, II: 4.09)
